- RUN_DESCRIPTION: growth inhibition of fluconazole-resistant C. albicans, confirmation, CaCi-2 strain, Alamar Blue, dry powder, set 5 (AID 493150)
- RUN_CONDITIONS: C. albicans CaCi-2 (fluconazole-resistant clinical isolate) + fluconazole, Alamar Blue growth, 48 h; at 12 µM (top of the series)
Inconclusive results are not listed.
Assignment: determine reported activity change, negative = inhibition for the given compounds.
Give bare numbers, in %.

Reference set, count: 6
INSERT INTO assay_data (chemical_smiles, observable, test_value) VALUES
  ('N#CCn1nc(-c2ccccc2)c2ccccc21', 'activity change, negative = inhibition', -18.5),
  ('c1ccc(-c2nn(Cc3nn[nH]n3)c3ccccc23)cc1', 'activity change, negative = inhibition', -7.06),
  ('CC(C)OC(=O)Cn1nc(-c2ccccc2)c2ccccc21', 'activity change, negative = inhibition', 11.7),
  ('CCOC(=O)Cn1nc(-c2ccccc2)c2ccccc21', 'activity change, negative = inhibition', 4.8),
  ('O=C(Cn1nc(-c2ccccc2)c2ccccc21)Oc1ccccc1', 'activity change, negative = inhibition', -4.43),
  ('COC(=O)Cn1nc(-c2ccc(C(F)(F)F)cc2)c2ccccc21', 'activity change, negative = inhibition', -0.629);

Please supply activity change, negative = inhibition for each of the following items, keeping them in order.
1. c1ccc(-c2nn(Cc3ncco3)c3ccccc23)cc1
2. COC(=O)CCn1nc(-c2ccccc2)c2ccccc21
3. COCCn1nc(-c2ccccc2)c2ccccc21
4. CC(C)(C)OC(=O)Cn1nc(-c2ccccc2)c2ccccc21
5. COC(=O)Cn1nc(-c2ccccc2)c2ccc(C#N)cc21

Result:
1.86
1.2
-9.42
17.1
-14.7
